# Tested Target: T1, porcine kidney DP IV, wild type (porcine, UniProt P22411 38-766, natively glycosylated (Asn279 among others, as seen in the crystal))
# T1 construct: In the crystal a 2-2-2 symmetric tetramer (dimer of dimers); also called p wt DP IV; p wt
# T1 sequence (P22411 38-766): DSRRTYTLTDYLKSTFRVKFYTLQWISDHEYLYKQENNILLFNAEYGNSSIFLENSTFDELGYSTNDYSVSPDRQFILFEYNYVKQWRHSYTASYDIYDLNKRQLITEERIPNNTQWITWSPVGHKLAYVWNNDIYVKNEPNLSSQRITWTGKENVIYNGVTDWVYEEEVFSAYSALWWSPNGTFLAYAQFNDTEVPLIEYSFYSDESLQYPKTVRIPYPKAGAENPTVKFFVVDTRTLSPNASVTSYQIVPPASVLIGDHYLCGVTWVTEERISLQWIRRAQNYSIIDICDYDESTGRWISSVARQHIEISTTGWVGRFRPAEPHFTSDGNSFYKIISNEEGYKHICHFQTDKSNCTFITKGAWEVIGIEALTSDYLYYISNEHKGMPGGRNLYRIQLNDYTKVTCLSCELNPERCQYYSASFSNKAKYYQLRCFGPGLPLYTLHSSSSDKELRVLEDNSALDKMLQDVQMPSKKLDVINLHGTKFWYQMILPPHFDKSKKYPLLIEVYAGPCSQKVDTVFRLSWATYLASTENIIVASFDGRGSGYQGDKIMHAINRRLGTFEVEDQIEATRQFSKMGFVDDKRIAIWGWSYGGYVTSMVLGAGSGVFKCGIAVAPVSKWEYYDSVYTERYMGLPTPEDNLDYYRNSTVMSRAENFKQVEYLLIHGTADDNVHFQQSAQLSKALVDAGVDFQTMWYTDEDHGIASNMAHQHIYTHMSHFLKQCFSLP
# Protocol Description: photometric assay, competition with the standard substrate GP-4NA
Where no end group is shown, it is not given here.

{"Binder": "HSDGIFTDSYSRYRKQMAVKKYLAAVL (peptide, UniProt P18509 132-158, looked up, ends and bridges not checked, range 132-158; also called PACAP(1-27)) [PACAP-27]", "Ki / µM": 54.3}
